// values below are reported pIC50
Target: T1, recombinant histidine-tagged cynomolgus monkey E-selectin (Sino Biologicals; 190169-C08H) (cynomolgus monkey, UniProt A0A2K5U7H9 22-554)
T1 construct: also called recombinant cynomolgus monkey E-selectin
T1 sequence: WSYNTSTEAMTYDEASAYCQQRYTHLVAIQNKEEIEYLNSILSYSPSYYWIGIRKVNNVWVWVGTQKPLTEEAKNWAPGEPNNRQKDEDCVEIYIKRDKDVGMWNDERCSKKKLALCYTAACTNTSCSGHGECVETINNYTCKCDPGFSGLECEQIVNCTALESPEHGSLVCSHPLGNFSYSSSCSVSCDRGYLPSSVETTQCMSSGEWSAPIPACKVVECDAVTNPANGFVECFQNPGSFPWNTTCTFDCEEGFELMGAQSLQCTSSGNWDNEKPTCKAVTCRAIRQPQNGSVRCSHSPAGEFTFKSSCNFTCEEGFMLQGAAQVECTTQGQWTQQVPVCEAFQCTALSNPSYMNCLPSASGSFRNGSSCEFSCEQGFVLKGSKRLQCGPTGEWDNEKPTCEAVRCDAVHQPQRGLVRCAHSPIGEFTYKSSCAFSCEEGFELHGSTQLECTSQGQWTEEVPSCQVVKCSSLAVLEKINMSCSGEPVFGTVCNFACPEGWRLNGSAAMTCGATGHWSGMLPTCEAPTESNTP
Assay: competition ELISA, His-tagged E-selectin on Ni-NTA plate vs HRP-conjugated sialyl Lewis A
Give only the number. pIC50 is defined as minus log10 of concentration in molar units.

binder="optimized anti-E-selectin antibody 1444 (antibody, human IgG1, kappa, V domains shown, effector-null human IgG1, kappa) VH: EVQLVESGGGLVQPGGSLRLSCAASGYAIRSAYMHWVRQAPGKGLEWVARIDPANGNTIYVDSVTGRFTISADNAKNSAYLQMNSLRAEDTAVYYCAMDLYSTSEYWGQGTLVTVSS VL: DIQMTQSPSSLSASVGDRVTITCKTSQNIERYLNWYQQKPGKAPKLLIYAASSLQSGVPSRFSGSGSGTDFTLTISSLQPEDFATYFCLQDNAWPLTFGQGTKVEIKR" reported_property=pIC50 experimental_value=8.54

Value of pIC50 reported for the binder optimized anti-E-selectin antibody 1282 (antibody, human IgG1, kappa, V domains shown, effector-null human IgG1, kappa) VH: EVQLVESGGGLVQPGGSLRLSCAASGYAIRSAYMHWVRQAPGKGLEWVARIDPANGNTIYVDSVEGRFTISADNAKNSAYLQMNSLRAEDTAVYYCAMDLYSTSEYWGQGTLVTVSS VL: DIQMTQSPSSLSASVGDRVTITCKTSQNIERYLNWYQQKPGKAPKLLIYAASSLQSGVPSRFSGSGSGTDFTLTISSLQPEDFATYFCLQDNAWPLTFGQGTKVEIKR is 8.49
